Consider compounds characterized by their IC50 with Brm ATPase-SnAC (636-1331) (Homo sapiens, UniProt P51531).
Sequence (P51531 whole entry, looked up): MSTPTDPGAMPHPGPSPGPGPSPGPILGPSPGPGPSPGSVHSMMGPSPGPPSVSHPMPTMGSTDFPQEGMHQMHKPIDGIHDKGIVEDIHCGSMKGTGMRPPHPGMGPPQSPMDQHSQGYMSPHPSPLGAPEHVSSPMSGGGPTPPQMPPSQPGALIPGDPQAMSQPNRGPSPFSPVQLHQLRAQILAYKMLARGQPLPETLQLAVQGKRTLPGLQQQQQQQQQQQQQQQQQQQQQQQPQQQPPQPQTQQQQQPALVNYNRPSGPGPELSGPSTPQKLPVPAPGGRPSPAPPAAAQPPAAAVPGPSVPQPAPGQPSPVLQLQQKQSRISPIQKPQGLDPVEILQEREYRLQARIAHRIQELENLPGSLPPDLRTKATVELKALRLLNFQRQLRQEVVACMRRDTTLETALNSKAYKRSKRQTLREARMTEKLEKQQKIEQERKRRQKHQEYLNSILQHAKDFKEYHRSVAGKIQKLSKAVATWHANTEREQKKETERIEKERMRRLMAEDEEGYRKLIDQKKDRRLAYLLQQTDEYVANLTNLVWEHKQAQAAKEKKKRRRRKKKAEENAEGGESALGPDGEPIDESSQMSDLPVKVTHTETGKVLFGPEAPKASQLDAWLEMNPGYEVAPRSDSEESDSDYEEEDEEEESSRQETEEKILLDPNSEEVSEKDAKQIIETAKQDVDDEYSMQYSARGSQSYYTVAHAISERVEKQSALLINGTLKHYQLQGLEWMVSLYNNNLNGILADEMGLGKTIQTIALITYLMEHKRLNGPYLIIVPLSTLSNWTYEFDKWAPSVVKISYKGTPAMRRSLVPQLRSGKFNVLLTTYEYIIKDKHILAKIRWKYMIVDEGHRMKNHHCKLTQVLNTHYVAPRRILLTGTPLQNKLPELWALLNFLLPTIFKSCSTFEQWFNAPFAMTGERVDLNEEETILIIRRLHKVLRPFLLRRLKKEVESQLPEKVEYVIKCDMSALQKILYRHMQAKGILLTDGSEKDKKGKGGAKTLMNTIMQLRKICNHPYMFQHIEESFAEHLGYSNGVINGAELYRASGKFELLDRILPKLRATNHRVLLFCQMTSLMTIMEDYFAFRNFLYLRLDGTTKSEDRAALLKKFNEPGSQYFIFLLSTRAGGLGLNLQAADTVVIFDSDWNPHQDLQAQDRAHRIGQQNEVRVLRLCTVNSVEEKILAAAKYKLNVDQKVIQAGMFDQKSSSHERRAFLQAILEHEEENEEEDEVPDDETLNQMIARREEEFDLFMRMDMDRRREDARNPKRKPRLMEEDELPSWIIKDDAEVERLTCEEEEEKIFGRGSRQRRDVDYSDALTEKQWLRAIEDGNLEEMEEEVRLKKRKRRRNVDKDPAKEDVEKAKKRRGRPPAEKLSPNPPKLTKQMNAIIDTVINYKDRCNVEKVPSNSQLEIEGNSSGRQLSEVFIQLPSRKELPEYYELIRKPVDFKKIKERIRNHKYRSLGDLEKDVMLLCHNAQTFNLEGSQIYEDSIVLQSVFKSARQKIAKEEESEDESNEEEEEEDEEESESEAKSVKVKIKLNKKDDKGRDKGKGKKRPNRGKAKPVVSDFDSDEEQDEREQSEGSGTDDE
Reported metric: IC50

[[record]]
compound = "O=C(Nc1cc(C(F)F)ns1)Nc1cc(F)ncc1CO [Example 7]"
obs_value = "< 5 nM"

[[record]]
compound = "O=C(Nc1ccnc(Cl)c1)Nc1cc(C(F)F)ns1 [Example 1]"
obs_value = "5 nM"

[[record]]
compound = "Cc1cc(NC(=O)Nc2ccnc(Cl)c2)sn1 [Example 2]"
obs_value = "33 nM"

[[record]]
compound = "Nc1cnc(F)cc1NC(=O)Nc1cc(C(F)F)ns1 [Example 6]"
obs_value = "< 5 nM"

[[record]]
compound = "O=C(Nc1cc(C(F)F)ns1)Nc1cc(Cl)ncc1CO [Example 5]"
obs_value = "< 5 nM"

[[record]]
compound = "Nc1cnc(Cl)cc1NC(=O)Nc1cc(C(F)F)ns1 [Example 4]"
obs_value = "< 5 nM"


====

Target desc: Brg1 ATPase-SnAC (658-1361) (Homo sapiens (Human), UniProt P51532)
Sequence (P51532 other isoform, or with tags, fused parts or gaps): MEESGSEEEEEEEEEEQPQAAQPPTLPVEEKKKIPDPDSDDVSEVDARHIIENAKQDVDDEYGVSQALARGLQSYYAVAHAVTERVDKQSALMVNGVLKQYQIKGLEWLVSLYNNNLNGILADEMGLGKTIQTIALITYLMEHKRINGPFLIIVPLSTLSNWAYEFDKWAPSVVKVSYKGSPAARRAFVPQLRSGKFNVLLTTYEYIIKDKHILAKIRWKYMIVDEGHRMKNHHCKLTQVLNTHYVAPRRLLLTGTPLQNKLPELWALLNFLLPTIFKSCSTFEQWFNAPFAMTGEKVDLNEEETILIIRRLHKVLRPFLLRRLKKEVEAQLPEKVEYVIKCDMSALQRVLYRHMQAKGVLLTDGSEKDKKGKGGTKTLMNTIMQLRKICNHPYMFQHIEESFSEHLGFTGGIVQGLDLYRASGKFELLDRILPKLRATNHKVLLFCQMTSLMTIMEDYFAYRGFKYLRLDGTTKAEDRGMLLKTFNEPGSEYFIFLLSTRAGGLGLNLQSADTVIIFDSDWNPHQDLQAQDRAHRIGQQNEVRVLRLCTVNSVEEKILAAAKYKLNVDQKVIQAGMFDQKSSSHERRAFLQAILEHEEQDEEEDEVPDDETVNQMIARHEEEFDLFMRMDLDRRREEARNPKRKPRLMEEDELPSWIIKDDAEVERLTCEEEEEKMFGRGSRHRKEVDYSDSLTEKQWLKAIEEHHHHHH
Method: BRG1 ATPase Inhibition Assay (ADP-Glo)
Format: biochemical
Run parameters: 5 nM Brg1 ATPase-SnAC, 65 μM ATP, 2 nM pCMV-dR8.91 plasmid, 60 min RT
pIC50: −log10 of the molar value.
Reported metric: pIC50

[[record]]
compound = "Cc1cc(NC(=O)Nc2ccnc(Cl)c2)sn1"
readout_relation = "="
obs_value = 7.52

[[record]]
compound = "Nc1cnc(Cl)cc1NC(=O)Nc1cc(C(F)F)ns1"
readout_relation = ">"
obs_value = 8.30

[[record]]
compound = "O=C(Nc1cc(C(F)F)ns1)Nc1ccnc(F)c1CO"
readout_relation = "="
obs_value = 7.72

[[record]]
compound = "O=C(Nc1ccnc(Cl)c1)Nc1cc(C(F)F)ns1"
readout_relation = "="
obs_value = 8.22

